Target protein (sequence): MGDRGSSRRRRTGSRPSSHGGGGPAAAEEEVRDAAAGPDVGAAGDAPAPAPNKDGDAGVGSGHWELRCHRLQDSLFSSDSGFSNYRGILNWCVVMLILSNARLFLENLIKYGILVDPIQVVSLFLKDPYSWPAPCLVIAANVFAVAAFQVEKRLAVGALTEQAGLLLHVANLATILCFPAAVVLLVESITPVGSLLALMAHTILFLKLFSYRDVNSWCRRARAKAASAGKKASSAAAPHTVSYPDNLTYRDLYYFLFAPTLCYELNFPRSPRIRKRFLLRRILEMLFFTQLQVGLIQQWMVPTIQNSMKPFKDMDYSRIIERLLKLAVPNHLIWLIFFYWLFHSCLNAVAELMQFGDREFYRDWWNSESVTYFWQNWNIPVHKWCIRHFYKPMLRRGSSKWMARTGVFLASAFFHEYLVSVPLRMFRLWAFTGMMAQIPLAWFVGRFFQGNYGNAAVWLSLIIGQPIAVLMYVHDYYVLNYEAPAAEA
attributeMeasured: IC50

> print(dat)
                                   compound  attributemeasured         result
1  O=C(O)c1cccc(COC2CCN(c3ccc(NC(=O)c4oc(N5CCC(c6ccccc6)CC5)nc4C(F)(F)F)cn3)CC2)c1               IC50   11 to 100 nM
2  CC1CCCN(c2nc(C(F)(F)F)c(C(=O)Nc3ccc(N4CCc5c(cccc5C(=O)O)C4)nc3)o2)C1 (stereo not drawn)               IC50  101 to 500 nM
3  CC1CCCN(c2nc(C(F)(F)F)c(C(=O)Nc3ccc(N4CCc5c(cccc5Nc5ccccc5F)C4)nc3)o2)C1 (stereo not drawn)               IC50  101 to 500 nM
4  CC1CCCN(c2nc(C(F)(F)F)c(C(=O)Nc3ccc(NC4CN(C(=O)Nc5ccccc5F)C4)nc3)o2)C1 (stereo not drawn)               IC50  101 to 500 nM
5  N#C/N=C(/N1CCCC1)N1CCN(c2ccc(NC(=O)c3oc(N4CCC(c5ccccc5)CC4)nc3C(F)(F)F)cn2)CC1               IC50  101 to 500 nM
6  O=C(Nc1ccc(N2CCN(C(=O)Cc3ccccc3F)CC2)nc1)c1oc(N2CCC(c3ccccc3)CC2)nc1C(F)(F)F               IC50   11 to 100 nM
7  CC1CCCN(c2nc(C(F)(F)F)c(C(=O)Nc3ccc(N4CCCN(C(=O)C(O)C(F)(F)F)CC4)nc3)o2)C1 (stereo not drawn)               IC50  101 to 500 nM
8  O=C(Nc1ccc(N2CCN(C(=O)[C@H](O)c3ccccc3)CC2)nc1)c1oc(N2CCC(c3cccc(Cl)c3)C2)nc1C(F)(F)F (stereo partly drawn)               IC50   11 to 100 nM
9  O=C(Nc1ccc(N2CCN(C(=O)C3NCCc4ccccc43)CC2)nc1)c1oc(N2CCC(c3ccccc3)CC2)nc1C(F)(F)F (stereo not drawn)               IC50  101 to 500 nM

###

Target: human DGAT1 enzyme (Homo sapiens)
Sequence (O75907 1-488): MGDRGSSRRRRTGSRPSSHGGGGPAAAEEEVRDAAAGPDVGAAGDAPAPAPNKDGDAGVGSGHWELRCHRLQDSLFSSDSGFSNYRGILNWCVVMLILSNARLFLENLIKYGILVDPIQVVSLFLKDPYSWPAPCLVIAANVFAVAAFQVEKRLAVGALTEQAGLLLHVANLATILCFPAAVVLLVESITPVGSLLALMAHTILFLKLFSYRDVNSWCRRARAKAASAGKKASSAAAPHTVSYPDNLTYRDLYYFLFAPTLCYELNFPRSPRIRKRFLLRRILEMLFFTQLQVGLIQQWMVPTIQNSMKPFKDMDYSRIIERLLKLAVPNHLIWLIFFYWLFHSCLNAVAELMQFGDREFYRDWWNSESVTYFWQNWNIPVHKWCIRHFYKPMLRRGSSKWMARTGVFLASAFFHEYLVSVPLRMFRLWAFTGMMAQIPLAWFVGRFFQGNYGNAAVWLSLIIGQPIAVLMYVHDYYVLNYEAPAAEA
Assay: in vitro DGAT1 inhibition assay (microsomes, [14C]-palmitoyl-CoA, SPA beads)
pIC50: −log10 of the molar value.
Each entry below carries its reported pIC50.
attributeMeasured: pIC50

> print(dat)
                                   molecule                       targetsystem        result
1  O=C(Nc1ccc(N2CCN(C(=O)[C@H](O)C3CCCCC3)CC2)nc1)c1oc(N2CCC(c3cccc(Cl)c3)C2)nc1C(F)(F)F (stereo partly drawn)  human DGAT1 enzyme (Homo sapiens)  7.00 to 7.96
2  O=C(Nc1ccc(N2CCN(C(=O)C(O)C(F)(F)F)CC2)nc1)c1oc(N2CCC(c3cccc(Cl)c3)C2)nc1C(F)(F)F (stereo not drawn)  human DGAT1 enzyme (Homo sapiens)  7.00 to 7.96
3  O=C(Nc1ccc(N2CCN(C(=O)[C@H](O)c3ccccc3)CC2)nc1)c1oc(N2CCC(c3ccccc3)CC2)nc1C(F)(F)F  human DGAT1 enzyme (Homo sapiens)  7.00 to 7.96
4  O=C(Nc1ccc(N2CCCN(C(=O)C(O)c3cc(F)cc(F)c3)CC2)nc1)c1oc(N2CCC(c3ccccc3)CC2)nc1C(F)(F)F (stereo not drawn)  human DGAT1 enzyme (Homo sapiens)  7.00 to 7.96
5  CCOC(=O)c1nnc2n1CCN(c1ccc(NC(=O)c3oc(N4CCC(c5ccccc5)CC4)nc3C(F)(F)F)cn1)C2  human DGAT1 enzyme (Homo sapiens)  6.30 to 7.00
6  O=C(O)c1ccccc1OCC1CCN(c2ccc(NC(=O)c3oc(N4CCC(c5ccccc5)CC4)nc3C(F)(F)F)cn2)CC1  human DGAT1 enzyme (Homo sapiens)  6.30 to 7.00

###

Each entry below carries its reported pIC50.
Target: human DGAT1 enzyme (Homo sapiens, UniProt O75907)
Sequence (O75907 1-488): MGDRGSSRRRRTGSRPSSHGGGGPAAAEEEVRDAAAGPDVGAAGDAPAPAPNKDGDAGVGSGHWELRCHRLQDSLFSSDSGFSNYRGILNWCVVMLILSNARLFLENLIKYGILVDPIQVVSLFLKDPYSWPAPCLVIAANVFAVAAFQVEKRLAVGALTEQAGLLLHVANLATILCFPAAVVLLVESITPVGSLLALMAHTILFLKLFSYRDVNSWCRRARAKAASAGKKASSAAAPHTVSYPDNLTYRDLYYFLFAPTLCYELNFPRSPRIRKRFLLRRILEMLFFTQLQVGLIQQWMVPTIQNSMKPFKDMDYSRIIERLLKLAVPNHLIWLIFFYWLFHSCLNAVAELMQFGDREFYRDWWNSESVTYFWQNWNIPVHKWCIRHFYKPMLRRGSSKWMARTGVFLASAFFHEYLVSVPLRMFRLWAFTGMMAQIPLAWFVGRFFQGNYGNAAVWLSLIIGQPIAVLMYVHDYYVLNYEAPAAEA
pIC50: −log10 of the molar value.
attributeMeasured: pIC50

> print(dat)
                                   compound                              targetsystem        result
1  O=C(Nc1ccc(N2CCN(c3nc4ccccc4[nH]3)CC2)nc1)c1oc(N2CCC(c3ccccc3)CC2)nc1C(F)(F)F  human DGAT1 enzyme (Homo sapiens, UniProt O75907)  6.30 to 7.00
2  Cc1cccc(Cl)c1NC(=O)N1CCCN(c2ccc(NC(=O)c3oc(N4CCCC(C)C4)nc3C(F)(F)F)cn2)CC1 (stereo not drawn)  human DGAT1 enzyme (Homo sapiens, UniProt O75907)  7.00 to 7.96
3  CC1CCCN(c2nc(C(F)(F)F)c(C(=O)Nc3ccc(N4CCN(C(=O)[C@H](O)c5ccccc5)CC4)nc3)o2)C1 (stereo partly drawn)  human DGAT1 enzyme (Homo sapiens, UniProt O75907)  7.00 to 7.96
4  O=C(O)c1cccc(OCC2CCN(c3ccc(NC(=O)c4oc(N5CCC(c6ccccc6)CC5)nc4C(F)(F)F)cn3)CC2)c1  human DGAT1 enzyme (Homo sapiens, UniProt O75907)  7.00 to 7.96
5  O=C(Nc1ccc(N2CCN(C(=S)Nc3ccccc3F)CC2)nc1)c1oc(N2CCC(c3ccccc3)CC2)nc1C(F)(F)F  human DGAT1 enzyme (Homo sapiens, UniProt O75907)  7.00 to 7.96
6  O=C(O)c1ccc(F)c(OCC2CCN(c3ccc(NC(=O)c4oc(N5CCC(c6ccccc6)CC5)nc4C(F)(F)F)cn3)CC2)c1  human DGAT1 enzyme (Homo sapiens, UniProt O75907)  7.00 to 7.96
